Measured viscosity, listed per entry for reference.
Test: xn = mol fraction of the nth substance listed
Details: 318.15 K; 101 kPa; x2 = 0.75
Could you give me the number in mPa·s? Just the number is fine.

Examples with answers:
{"columns": ["compound", "viscosity [mPa·s]"],
 "data": [
  ["CCCCCCCCCCO + CCO", 1.775],
  ["CCCCCCCCCCO + CO", 1.405],
  ["CCCCCCCCCCO + CCCCO", 2.301]
]}

Next compound, viscosity to be filled in.
# input Can you share its viscosity? I mean this compound: CCCCCCCCCCO + CCCO
# output 2.9

###

Measured viscosity, listed per entry for reference.
Settings: 303.15 K; 100 kPa
Could you give me the number in mPa·s? Just the number is fine.

Examples with answers:
{"columns": ["structure-notation", "viscosity / mPa·s"],
 "data": [
  ["Cc1ccc(Cl)cc1", 0.782],
  ["CCOC(=O)OCC", 0.698],
  ["CN1CCN(C)C1=O", 1.76]
]}

# input Can you share its viscosity? I mean this compound: CCCCCCCCCCO
# output 9.708

# input Can you share its viscosity? I mean this compound: OCCN(CCO)CCO
# output 413

# input Can you share its viscosity? I mean this compound: CCn1cc[n+](C)c1.F[B-](F)(F)F
# output 34.53
